Provide the recorded Cell proliferation for the entries that follow.
System: HL-60
Test: Percent cell proliferation of human leukemia cell line HL-60 at 1*E-5 M
Type: functional
Numbers only, in %.

Examples with their reported Cell proliferation follow.
Cell proliferation measured on CC(C)c1cccc(C(C)C)c1N1C(=O)c2ccc(N)cc2C1=O = 53

Cell proliferation measured on O=C1CCC(N2C(=O)c3ccccc3C2=O)C(=O)N1O (stereo not drawn) = 100

Cell proliferation measured on CC1(N2C(=O)c3ccc(N)cc3C2=O)CCC(=O)NC1=O (stereo not drawn) = 103

Go through the list and state Cell proliferation for each entry.
1. CC(C)c1cccc(C(C)C)c1N1C(=O)c2cccc(O)c2C1=O
2. CC(C)c1cccc(C(C)C)c1N1C(=O)c2cccc(N)c2C1=O
3. CC(C)c1cccc(C(C)C)c1N1C(=O)c2ccccc2C1=O
4. O=C1CCC(N2C(=O)c3ccccc3C2=O)C(=O)N1 (stereo not drawn) [THALIDOMIDE]
5. CC1(N2C(=O)c3cccc(N)c3C2=O)CCC(=O)NC1=O (stereo not drawn)

Solution:
76
25
24
101
92
